Where do these numbers come from? They come from ChEMBL document CHEMBL3988442.

# System: Mycobacterium tuberculosis
# protocol.text: Cornell M. t heat shock assay; note: in the data most compounds retested in dose-response had high values
# Assay type: functional, organism-based
# Set-up: dose or concentration left out as unconfirmed
Out of some 69,000 compounds screened, about 950 (1.4%) showed an effect of 50% or more. Many of the other results were omitted from the sample, so strong results are more common in it than they were.
Quick reference: Percent Effect of the listed items.
Show the value, then the unit it is measured in.

Examples from the recorded data:
What the record says about `Cc1nn(C)c(Cl)c1CNCc1cccnc1N1CCN(C)CC1.Cl` : Percent Effect is -22.17%

What the record says about Cc1ccnc(N2CCCC(c3noc(C(C)C)n3)C2)n1 (stereo not given) : Percent Effect is 12.21%

What the record says about O=C(O)C(F)(F)F.O=C(O)C(F)(F)F.O=C(O)CN1CCC(F)(F)C2(CCN(c3ccccc3)C2)C1 (stereo not given) : Percent Effect is 100.8%

What the record says about COc1ccc(CN2CCn3cccc3C2C)cc1F (stereo not given) : Percent Effect is 13.47%

***
What the record says about `Cc1ccc(N2CCO[C@H]3CN(CC4CC4)C[C@H]32)nn1.O=C(O)C(F)(F)F.O=C(O)C(F)(F)F` : Percent Effect is -7.487%
